Property measured: melting point

Some solved entries appear below for comparison.
So, Cc1ccccc1-c1ccc(O)c(C(=O)O)c1 ? Its melting point was 151 °C

So, O=C1CCC(N2C(=O)c3ccc(CNC(=O)c4ccc(Cl)c(Cl)c4)cc3C2=O)C(=O)N1 (stereo not given) ? Its melting point was 253 to 255 °C

So, CC(C)OC1CCC(=O)N1S(=O)(=O)C=Cc1ccccc1 (stereo not given) ? Its melting point was 92 to 94 °C

So, Fc1ccc(/C=C/c2nc(COc3cccc(CCCn4ccnn4)c3)co2)cc1 ? Its melting point was 105 to 106 °C

So, Cc1cc(C(=O)NC2=NC(C)CC2(c2ccccc2)c2ccccc2)[nH]n1 (stereo not given) ? Its melting point was 221 to 223 °C

So, CCOC(=O)CN(c1ccc(Cl)cc1)[C@H]1c2cc(C#N)ccc2OC(C)(C)[C@@H]1O ? Its melting point was 172 °C

So, CN(C)C(=O)CNc1cc(-c2ccccc2)nc(-c2ccc(C(F)(F)F)cc2)n1 ? Its melting point was 178 to 179 °C

So, CCCCCC(=O)NCCCSc1ccncc1 ? Its melting point was 48 to 49 °C

New cases:
So, Cc1ccc(Oc2ccc(C#N)cc2)c(O)c1 ? Its melting point was 118 to 119 °C
